Where do the numbers come from? From patent US5451573A.

biological target: glucose-6-phosphatase system (Rattus norvegicus, UniProt F7EWB7); construct: from tissue; host or cells: liver microsomes of male Wistar rats; experiment: glucose-6-phosphatase enzyme test in liver microsomes (phosphate released from glucose-6-phosphate); format: biochemical, male Wistar rats; settings: Concentration 1 × 10^-3 M; rat liver microsome fraction, glucose-6-phosphate 1 mmol/l, pH 7.0; read-out: Inhibition [%]
Sequence (F7EWB7 1-429): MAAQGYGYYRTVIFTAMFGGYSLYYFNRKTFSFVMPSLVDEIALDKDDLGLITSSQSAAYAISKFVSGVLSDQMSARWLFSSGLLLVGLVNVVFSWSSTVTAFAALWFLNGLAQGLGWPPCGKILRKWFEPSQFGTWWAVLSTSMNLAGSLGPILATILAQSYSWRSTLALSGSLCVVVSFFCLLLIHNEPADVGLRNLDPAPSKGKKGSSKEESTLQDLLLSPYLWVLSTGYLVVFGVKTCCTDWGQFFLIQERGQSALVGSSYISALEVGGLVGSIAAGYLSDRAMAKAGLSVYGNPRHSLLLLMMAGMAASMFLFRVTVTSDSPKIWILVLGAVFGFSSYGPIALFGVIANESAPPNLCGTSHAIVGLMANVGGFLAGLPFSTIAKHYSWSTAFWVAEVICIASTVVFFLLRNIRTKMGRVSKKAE
attribute measured: inhibition at 1000 µM (%)

Reference set, count: 5
| structure | study system | result units | recorded value |
| --- | --- | --- | --- |
| O=C(/C=C/c1ccc([N+](=O)[O-])cc1)O[C@@H]1C[C@](O)(C(=O)O)C[C@@H](O)[C@H]1O | glucose-6-phosphatase system (Rattus norvegicus, UniProt F7EWB7) | % | 35 |
| O=C(/C=C/c1ccc(O)cc1)O[C@@H]1C[C@@](O)(C(=O)O)[C@H](O)[C@@H](O)[C@H]1O | glucose-6-phosphatase system (Rattus norvegicus, UniProt F7EWB7) | % | 10 |
| O=C(/C=C/c1ccc(O)cc1)O[C@@H]1C[C@](O)(C(=O)O)[C@@H](O)[C@@H](O)[C@H]1O | glucose-6-phosphatase system (Rattus norvegicus, UniProt F7EWB7) | % | 30 |
| O=C(/C=C/c1ccc(O)cc1)O[C@@H]1CC(CP(=O)(O)O)=C[C@@H](O)[C@H]1O | glucose-6-phosphatase system (Rattus norvegicus, UniProt F7EWB7) | % | 28 |
| COc1sccc1/C=C/C(=O)O[C@@H]1C[C@](O)(C(=O)O)C[C@@H](O)[C@H]1O | glucose-6-phosphatase system (Rattus norvegicus, UniProt F7EWB7) | % | 20 |

a. O=C(/C=C/c1ccc(O)cc1)O[C@@H]1C[C@H](C(=O)O)CC[C@H]1O
b. O=C(O)C[C@]1(O)C[C@@H](O)[C@@H](O)[C@H](OC(=O)/C=C/c2ccc(O)cc2)C1
Please choose the item with the lower inhibition at 1000 µM value from this pair: a and b Record your answer as the label of the chosen record.
a
